The origin of these recorded values is patent US4055468A.

Catalogue of IC50 values
- assay.system: pepsin (Sus scrofa, UniProt P00791)
- Construct: purchased SIGMA 2XCRY (grade as printed; no catalogue number)
- Sequence (P00791 60-385): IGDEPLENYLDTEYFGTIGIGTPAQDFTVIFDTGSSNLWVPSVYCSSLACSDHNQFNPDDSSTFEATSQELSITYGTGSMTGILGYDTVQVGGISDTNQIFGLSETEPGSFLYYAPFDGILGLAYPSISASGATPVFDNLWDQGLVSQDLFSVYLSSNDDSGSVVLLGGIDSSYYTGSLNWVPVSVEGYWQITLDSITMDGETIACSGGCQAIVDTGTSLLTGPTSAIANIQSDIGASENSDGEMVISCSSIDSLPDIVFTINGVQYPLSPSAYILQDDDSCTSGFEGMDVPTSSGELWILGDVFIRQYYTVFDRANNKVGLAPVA
- measurement.protocol: Assay of pepsin-inhibitory activity (casein digestion)
- Type: biochemical
Numbers only; they are read as µM.

- compound: "CC(C)C[C@H](NC(=O)[C@H](C)NC(=O)C[C@H](O)[C@H](CC(C)C)NC(=O)[C@@H](NC(=O)c1ccccc1)C(C)C)[C@@H](O)CC(=O)O [Benzoyl--Val--X--Ala--X, N--benzoyl--Val--X--Ala--X]"
  IC50, µM: 0.0511

Let us move to another entry and its IC50.
[Q] IC50 lookup needed for CC(=O)N[C@H](C(=O)NC(CC(C)C)C(O)CC(=O)N[C@@H](C)C(=O)NC(CC(C)C)C(O)CC(=O)O)C(C)C (some centres unmarked) [Acetyl--Val--X--Ala--X, N--acetyl--Val--X--Ala--X] , thanks.
[A] 0.0569

###

- assay.system: Cathepsin D (Homo sapiens)
- Sequence (P07339 65-412, species assumed): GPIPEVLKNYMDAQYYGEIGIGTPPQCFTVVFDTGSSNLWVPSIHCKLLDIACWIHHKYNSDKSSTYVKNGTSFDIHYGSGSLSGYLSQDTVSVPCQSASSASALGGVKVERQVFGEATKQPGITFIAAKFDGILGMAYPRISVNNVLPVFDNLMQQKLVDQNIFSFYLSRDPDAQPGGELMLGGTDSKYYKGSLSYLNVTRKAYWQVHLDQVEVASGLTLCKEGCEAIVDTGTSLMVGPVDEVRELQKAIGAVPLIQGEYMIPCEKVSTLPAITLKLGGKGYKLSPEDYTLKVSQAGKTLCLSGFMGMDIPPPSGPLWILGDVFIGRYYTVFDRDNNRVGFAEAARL
property: pIC50
Keep it numeric: pIC50 is minus log10 of the concentration in mol/L.

- compound: "CC(=O)N[C@H](C(=O)NC(CC(C)C)C(O)CC(=O)N[C@@H](C)C(=O)NC(CC(C)C)C(O)CC(=O)O)C(C)C (stereo partly shown)"
  assay.system: "Cathepsin D (Homo sapiens)"
  pIC50: 6.11
- compound: "CC(C)C[C@H](NC(=O)[C@H](C)NC(=O)C[C@H](O)[C@H](CC(C)C)NC(=O)[C@@H](NC(=O)C(C)C)C(C)C)[C@@H](O)CC(=O)O"
  assay.system: "Cathepsin D (Homo sapiens)"
  pIC50: 6.31
- compound: "CCCCCCCCCCCCCCCC(=O)N[C@H](C(=O)N[C@@H](CC(C)C)[C@@H](O)CC(=O)N[C@@H](C)C(=O)N[C@@H](CC(C)C)[C@@H](O)CC(=O)O)C(C)C"
  assay.system: "Cathepsin D (Homo sapiens)"
  pIC50: 5.83

[Q] pIC50 lookup needed for CC(C)C[C@H](NC(=O)[C@H](C)NC(=O)C[C@H](O)[C@H](CC(C)C)NC(=O)[C@@H](NC(=O)C(C)Oc1ccccc1)C(C)C)[C@@H](O)CC(=O)O (stereo partly shown) , thanks.
[A] 7.81

###

- System: enzyme decomposing R--Val--Val--X--Ala--X to Val--X--Ala--X
- measurement.protocol: Effect of various inhibitors and metal ions on enzyme activity
- Assay type: biochemical, Bacillus sphaericus ATCC 14577
Catalogue of Relative activity values
// no unit string in output, number only

- molecule: "CC(=O)[O-].CC(=O)[O-].[Hg+2] [Mercuric Acetate]"
  assay.system: "enzyme decomposing R--Val--Val--X--Ala--X to Val--X--Ala--X"
  Relative activity: 0
- molecule: "O=C(O)CI [Monoiodoacetic Acid]"
  assay.system: "enzyme decomposing R--Val--Val--X--Ala--X to Val--X--Ala--X"
  Relative activity: 84
- molecule: "CC(=O)[O-].CC(=O)[O-].[Pb+2] [Lead Acetate]"
  assay.system: "enzyme decomposing R--Val--Val--X--Ala--X to Val--X--Ala--X"
  Relative activity: 43

Let us move to another entry and its Relative activity.
[Q] Relative activity lookup needed for [N-]=[N+]=[N-].[Na+] [NaN3] , thanks.
[A] 100

###

- System: enzyme decomposing R--Val--Val--X--Ala--X to Val--X--Ala--X
- measurement.protocol: Effect of various inhibitors and metal ions on enzyme activity
- Type: biochemical, Bacillus sphaericus ATCC 14577
- condition.summary: 2mM
property: Inhibition of the enzyme

These solved cases illustrate the format of a correct answer.
- compound: "c1cnc2c(c1)ccc1cccnc12"
  Inhibition of the enzyme: "Inhibition"
- compound: "O=C1CCC(=O)N1Br [N-Bromosuccinimide]"
  Inhibition of the enzyme: "Inhibition"
- compound: "OCCS"
  Inhibition of the enzyme: "Inhibition"
- compound: "[Cl][Hg][Cl]"
  Inhibition of the enzyme: "Inhibition"

Let us move to another entry and its Inhibition of the enzyme.
[Q] Inhibition of the enzyme of O[C@H](CS)[C@H](O)CS (racemic) on enzyme decomposing R--Val--Val--X--Ala--X to Val--X--Ala--X?
[A] Inhibition
